Test system: UACC-62 melanoma
METHOD: NCI tumour cell line growth inhibition, 48 h
MEASURE_NAME: TGI

Some compounds with recorded TGI:
INSERT INTO measurements (compound, assay_value) VALUES
  ('COc1ccc(C(=O)C(c2ccc(OC)cc2)C2(O)C(=O)Nc3ccccc32)cc1 (stereo not given)', '> 100 µM'),
  ('Cn1cc(C2=C(c3cccc4ccccc34)C(=O)NC2=O)c2ccccc21', '> 25 µM'),
  ('CN(C)c1ccc(N2Cc3ccccc3OC3=C2C(=O)c2c(O)ccc(O)c2C3=O)cn1', '0.638 µM');

// map COc1ccc(NC(=O)CC(=O)N2N=C(N3CCCCC3)CC2c2ccccc2)cc1 (stereo not given) to recorded TGI (system: UACC-62 melanoma)
> 100 µM

Do the same for CN(NC(=O)c1ccco1)C1=NCCN1 please
> 100 µM
